Measured CRF1R EC50 accompanies every entry in the list below.
Target: CRF1R
Experiment: cell-based or functional assay
Ends that are not written are not given here.
property: CRF1R EC50 (nM)

>>> df
                                      binder    property  unit_text  lt_gt_eq   val
 0  ZGPPISIDLPTALLRKMIEIEKQEKEKQQAANNRLLLDTI (C-terminal amide) [SEQ ID NO 61]  CRF1R EC50         nM         >   100
 1  SQEPPISLDLPIQLLREVLEMTKADQLAQQAHSNRKLLDIA-NH2 [SEQ ID NO 100]  CRF1R EC50         nM         =   100
 2  ZGPPISIDLPIDLLRKMIEIEKQEKEKQQAANNRLLLDTI (C-terminal amide) [SEQ ID NO 28]  CRF1R EC50         nM         >  1000
 3  SQEPPISLDLPFHLLREVLEMTKADQLAQQAHSNRKLLDIA-NH2 [SEQ ID NO 104]  CRF1R EC50         nM         =   100
 4  SQEIVLSLDVPIGLLREVLEMTKADQLAQQAHSNRKLLDIA-NH2 [SEQ ID NO 152]  CRF1R EC50         nM         >   100
 5  IVLSLEVPIGLLQILLEQARARAAREQATTNARILARV-NH2 [SEQ ID NO 120]  CRF1R EC50         nM         =   100
 6  ZGPPISIDLSIGLLRKMIEIEKQEKEKQQAANNRLLLDTI (C-terminal amide) [SEQ ID NO 25]  CRF1R EC50         nM         =   677
 7  ZGPPISIDLPLLLLRKMIEIEKQEKEKQQAANNRLLLDTI (C-terminal amide) [SEQ ID NO 188]  CRF1R EC50         nM         =   162
 8  IVLSLDVPIGLLQILLEQTKANAAREQATTVARILARV-NH2 [SEQ ID NO 116]  CRF1R EC50         nM         =   100
 9  IVLSLDVPIGLLQILLEQEKQEKEKQQATTNARILARV-NH2 [SEQ ID NO 167]  CRF1R EC50         nM         =  1000
10  ZGPPISIDLPDYLLRKMIEIEKQEKEKQQAANNRLLLDTI (C-terminal amide) [SEQ ID NO 54]  CRF1R EC50         nM         =  1000
11  ZGPPISIDLPKYLLRKMIEIEKQEKEKQQAANNRLLLDTI (C-terminal amide) [SEQ ID NO 58]  CRF1R EC50         nM         >   100
12  ZGPPISIDLPWHLLRKMIEIEKQEKEKQQAANNRLLLDTI (C-terminal amide) [SEQ ID NO 209]  CRF1R EC50         nM         =  26.4
13  IVLSLDVPIGLLQILLEIEKQEKEKQQAANNRLLLDTI-NH2 [SEQ ID NO 158]  CRF1R EC50         nM         >   100
14  SQEPPISLDLPTELLREVLEMTKADQLAQQAHSNRKIIDIA-NH2 [SEQ ID NO 92]  CRF1R EC50         nM         =   100
15  ZGPPISIDLPAHLLRKMIEIEKQEKEKQQAANNRLLLDTI (C-terminal amide) [SEQ ID NO 206]  CRF1R EC50         nM         =   696
16  ZGPPISIDLPRYLLRKMIEIEKQEKEKQQAANNRLLLDTI (C-terminal amide) [SEQ ID NO 65]  CRF1R EC50         nM         >   100
17  IVLSLDVPIGLLQILLEQRARAAREQATTNARILARV-NH2 [SEQ ID NO 137]  CRF1R EC50         nM         >   100
18  ZGPPISIDLPWFLLRKMIEIEKQEKEKQQAANNRLLLDTI (C-terminal amide) [SEQ ID NO 187]  CRF1R EC50         nM         =  31.6
19  ZGPPISIDLPYYLLRKMIEIEKQEKEKQQAANNRLLLDTI (C-terminal amide) [SEQ ID NO 40]  CRF1R EC50         nM         =   102
20  ZGPPISIDLPLFLLRKMIEIEKQEKEKQQAANNRLLLDTI (C-terminal amide) [SEQ ID NO 195]  CRF1R EC50         nM         =   103
21  ZGPPISIDLPYILLRKMIEIEKQEKEKQQAANNRLLLDTI (C-terminal amide) [SEQ ID NO 204]  CRF1R EC50         nM         =  32.1
22  ZGPPISIDLPIELLRKMIEIEKQEKEKQQAANNRLLLDTI (C-terminal amide) [SEQ ID NO 76]  CRF1R EC50         nM         >   100
23  SQEPPISLDLPTYLLREVLEMTKADQLAQQAHSNRKLLDIA-NH2 [SEQ ID NO 106]  CRF1R EC50         nM         =   100
